# Test system: UO-31 renal
# experiment-description: NCI tumour cell line growth inhibition, 48 h
measure: GI50

> print(dat)
                                   compound  assay.value
1     O=c1cc(N2CCOCC2)oc2c(-c3ccccc3)cccc12      1390 nM
2  Cc1cc(C)c2nc(Nc3nc(C)c(C)c(=O)[nH]3)nc(C)c2c1      1820 nM
3  COc1ccc(OC)c(-c2cc(-c3ccc(Cl)cc3)nn2-c2ccc(S(N)(=O)=O)cc2)c1     21800 nM
4  Nc1nc(Cl)cc2c1ncn2C1OC(CO)C(O)C1O (stereo not given)  > 100000 nM
5  COc1ccc(C2CC(c3cccc(Nc4ccnc5cc(Cl)ccc45)c3)=NN2c2ccccc2)cc1 (stereo not given)       478 nM
6  NS(=O)(=O)OC[C@H]1O[C@@H](n2cnc3c(N[C@H]4CCc5ccccc54)ncnc32)[C@H](O)[C@@H]1O      1410 nM
7  O=C1/C(=C/c2ccc(F)cc2)CN(Cc2cn(CCNc3ccnc4cc(Cl)ccc34)nn2)C/C1=C\c1ccc(F)cc1      1370 nM
8  COC(=O)C1=C(O)C(C(=O)OC)[C@@]2(O)[C@@H](C(=O)OC)C(c3ccccc3C(F)(F)F)C[C@@H]1[C@@H]2C(=O)OC (stereo not given in full)     13000 nM
9  O=C(CCCCCn1c2ccccc2c2c3c(c4c5ccccc5[nH]c4c21)C(=O)N(O)C3=O)N1CCOCC1      1600 nM

Okay, now this compound:
Task item: Any idea what its GI50 is? The compound is CCCCCCCC(=O)SCC/C=C/[C@@H]1CC(=O)NCc2cccc(n2)CN(Cc2ccc(Cl)cc2)CC(=O)N[C@@H](C(C)C)C(=O)O1
Reply: 6270 nM

---

# Tested on: KM12 colon
# experiment-description: NCI tumour cell line growth inhibition, 48 h; in the data active means GI50 below about 0.43 µM; inactive means the rest
Give one outcome, nothing more. List: label 1 (active), label 0 (inactive)

> print(dat)
                                   compound    group
1  COc1ccc(OC)c(-c2cc(-c3ccc(Cl)cc3)nn2-c2ccc(S(N)(=O)=O)cc2)c1  label 0
2  NS(=O)(=O)OC[C@H]1O[C@@H](n2cnc3c(N[C@H]4CCc5ccccc54)ncnc32)[C@H](O)[C@@H]1O  label 0
3  COc1cc(C2CC(c3ccc(C)cc3)=NN2C(C)=O)ccc1Oc1ccnc2cc(Cl)ccc12 (stereo not drawn)  label 0
4  COc1ccc(-c2ccc(/C=N/n3cnn(CN4CCN(C)CC4)c3=S)o2)c([N+](=O)[O-])c1  label 0
5  COC(=O)C1=C(O)C(C(=O)OC)[C@@]2(O)[C@@H](C(=O)OC)C(c3ccccc3C(F)(F)F)C[C@@H]1[C@@H]2C(=O)OC (stereo partly drawn)  label 0
6  O=C(NCCc1ccccc1)C(c1csc2ccccc12)N(C(=O)CCl)c1ccc(-c2cnco2)cc1 (stereo not drawn)  label 1
7  CC(=O)c1c[nH]c2ccc(-c3ccnc(Nc4ccc(NC(=O)c5cccc(F)c5)c(CN5CCOCC5)c4)n3)cc12  label 1

With those in mind, consider the next compound.
Task item: Could you please tell me the result logged for COc1cc(C2C3=C(COC3=O)N(CCO)c3cc4c(cc32)OCCO4)cc(OC)c1O (stereo not drawn) in this assay?
Reply: label 0
